# measured_on: Tyrosyl-DNA phosphodiesterase 1 (Homo sapiens)
# Sequence (Q9NUW8 whole entry): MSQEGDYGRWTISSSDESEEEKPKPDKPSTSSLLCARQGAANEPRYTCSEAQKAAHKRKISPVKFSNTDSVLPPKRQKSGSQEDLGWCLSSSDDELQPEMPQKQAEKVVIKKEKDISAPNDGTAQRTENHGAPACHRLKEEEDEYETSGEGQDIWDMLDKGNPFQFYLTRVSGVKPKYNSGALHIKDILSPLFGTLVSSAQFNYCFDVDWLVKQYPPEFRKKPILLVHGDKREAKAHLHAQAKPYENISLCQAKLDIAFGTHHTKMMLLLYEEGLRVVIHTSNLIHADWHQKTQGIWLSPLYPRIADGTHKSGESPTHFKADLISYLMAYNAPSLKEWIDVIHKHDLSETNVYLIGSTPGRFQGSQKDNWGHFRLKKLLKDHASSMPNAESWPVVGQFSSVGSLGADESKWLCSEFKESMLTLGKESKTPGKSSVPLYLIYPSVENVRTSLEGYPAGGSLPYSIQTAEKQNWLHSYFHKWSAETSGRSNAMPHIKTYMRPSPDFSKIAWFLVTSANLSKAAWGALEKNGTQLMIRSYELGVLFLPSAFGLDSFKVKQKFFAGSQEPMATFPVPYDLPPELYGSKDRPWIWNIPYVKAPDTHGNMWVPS
# procedure_details: Inhibition of human recombinant Tdp1 assessed as conversion of 14-mer 5'-32P-labeled 3'-phosphotyrosyl DNA substrate N14Y to 14-mer 5'-32P-labeled 3'-phosphate DNA product N14P after 15 mins by PAGE analysis
pIC50: −log10 of the molar value.
quantity: pIC50

[[record]]
compound = "O=C1/C(=C/c2ccc(F)cc2)NC(=S)N1c1ccccc1"
measured_on = "Tyrosyl-DNA phosphodiesterase 1 (Homo sapiens)"
relation_symbol = "<"
observed_value = 3.48

[[record]]
compound = "N#C/C(=C\\c1ccc(O)c(O)c1)C(=O)NCc1ccccc1"
measured_on = "Tyrosyl-DNA phosphodiesterase 1 (Homo sapiens)"
relation_symbol = "<"
observed_value = 3.48

[[record]]
compound = "O=C1NC(=O)/C(=C/c2ccc(F)cc2)S1"
measured_on = "Tyrosyl-DNA phosphodiesterase 1 (Homo sapiens)"
relation_symbol = "<"
observed_value = 3.48

[[record]]
compound = "O=C1NC(=O)/C(=C/c2ccc3[nH]ccc3c2)S1"
measured_on = "Tyrosyl-DNA phosphodiesterase 1 (Homo sapiens)"
relation_symbol = "<"
observed_value = 3.95

[[record]]
compound = "O=C1NC(=S)/C(=C/c2ccncc2)S1"
measured_on = "Tyrosyl-DNA phosphodiesterase 1 (Homo sapiens)"
relation_symbol = "="
observed_value = 4.12

[[record]]
compound = "O=C1NC(=O)/C(=C/c2ccc(C(=O)O)cc2)S1"
measured_on = "Tyrosyl-DNA phosphodiesterase 1 (Homo sapiens)"
relation_symbol = "<"
observed_value = 3.95

[[record]]
compound = "N#CC(C#N)=Cc1cc(O)c(O)c(O)c1 [TYRPHOSTIN 25]"
measured_on = "Tyrosyl-DNA phosphodiesterase 1 (Homo sapiens)"
relation_symbol = "<"
observed_value = 3.48

[[record]]
compound = "N#C/C(=C\\c1ccc([N+](=O)[O-])cc1)C(N)=S"
measured_on = "Tyrosyl-DNA phosphodiesterase 1 (Homo sapiens)"
relation_symbol = "<"
observed_value = 3.48

[[record]]
compound = "COC(=O)c1ccc(/C=C2\\SC(=O)NC2=S)cc1"
measured_on = "Tyrosyl-DNA phosphodiesterase 1 (Homo sapiens)"
relation_symbol = "="
observed_value = 5.17

[[record]]
compound = "O=C1NC(=S)/C(=C/c2ccc([N+](=O)[O-])cc2)S1"
measured_on = "Tyrosyl-DNA phosphodiesterase 1 (Homo sapiens)"
relation_symbol = "="
observed_value = 4.72

[[record]]
compound = "O=C1NC(=S)/C(=C/c2ccc(O)cc2O)S1"
measured_on = "Tyrosyl-DNA phosphodiesterase 1 (Homo sapiens)"
relation_symbol = "="
observed_value = 5.39

[[record]]
compound = "Cn1cc(/C=C2\\SC(=O)NC2=S)c2ccccc21"
measured_on = "Tyrosyl-DNA phosphodiesterase 1 (Homo sapiens)"
relation_symbol = "="
observed_value = 4.40

[[record]]
compound = "N#C/C(=C\\c1ccc2[nH]ccc2c1)C(N)=S"
measured_on = "Tyrosyl-DNA phosphodiesterase 1 (Homo sapiens)"
relation_symbol = "<"
observed_value = 3.48

[[record]]
compound = "CC(=O)Nc1ccc(/C=C(\\C#N)C(N)=S)cc1"
measured_on = "Tyrosyl-DNA phosphodiesterase 1 (Homo sapiens)"
relation_symbol = "<"
observed_value = 3.48

[[record]]
compound = "O=C1NC(=S)/C(=C/c2ccc(Br)cc2)S1"
measured_on = "Tyrosyl-DNA phosphodiesterase 1 (Homo sapiens)"
relation_symbol = "="
observed_value = 4.52

[[record]]
compound = "N#C/C(=C\\c1ccc(O)c(O)c1)C(N)=O"
measured_on = "Tyrosyl-DNA phosphodiesterase 1 (Homo sapiens)"
relation_symbol = "<"
observed_value = 3.48

[[record]]
compound = "O=C1NC(=S)/C(=C/c2ccccc2S(=O)(=O)O)S1"
measured_on = "Tyrosyl-DNA phosphodiesterase 1 (Homo sapiens)"
relation_symbol = "="
observed_value = 4.70

[[record]]
compound = "O=C1NC(=S)/C(=C/c2csc3ccccc23)S1"
measured_on = "Tyrosyl-DNA phosphodiesterase 1 (Homo sapiens)"
relation_symbol = "="
observed_value = 4.47

[[record]]
compound = "N#C/C(=C\\c1ccc(O)c(O)c1)C(=S)NCc1ccccc1"
measured_on = "Tyrosyl-DNA phosphodiesterase 1 (Homo sapiens)"
relation_symbol = "="
observed_value = 4.74

[[record]]
compound = "N#Cc1ccc(/C=C2\\SC(=O)NC2=S)cc1"
measured_on = "Tyrosyl-DNA phosphodiesterase 1 (Homo sapiens)"
relation_symbol = "="
observed_value = 4.55

[[record]]
compound = "COc1cc(/C=C2\\SC(=O)NC2=S)ccc1O"
measured_on = "Tyrosyl-DNA phosphodiesterase 1 (Homo sapiens)"
relation_symbol = "="
observed_value = 4.96

[[record]]
compound = "N#C/C(=C\\c1ccc(O)c(O)c1)C(=O)O"
measured_on = "Tyrosyl-DNA phosphodiesterase 1 (Homo sapiens)"
relation_symbol = "<"
observed_value = 3.48

[[record]]
compound = "O=C1NC(=S)/C(=C/c2cccc(C(=O)O)c2)S1"
measured_on = "Tyrosyl-DNA phosphodiesterase 1 (Homo sapiens)"
relation_symbol = "="
observed_value = 4.82

[[record]]
compound = "O=C1NC(=S)/C(=C/c2ccc(O)c(O)c2)S1"
measured_on = "Tyrosyl-DNA phosphodiesterase 1 (Homo sapiens)"
relation_symbol = "="
observed_value = 5.59

[[record]]
compound = "O=C(O)c1ccc(/C=C2\\NC(=S)N(c3ccccc3)C2=O)cc1"
measured_on = "Tyrosyl-DNA phosphodiesterase 1 (Homo sapiens)"
relation_symbol = "<"
observed_value = 3.48

[[record]]
compound = "O=C1NC(=S)/C(=C/c2cccc(O)c2)S1"
measured_on = "Tyrosyl-DNA phosphodiesterase 1 (Homo sapiens)"
relation_symbol = "="
observed_value = 4.59

[[record]]
compound = "N#C/C(=C\\c1ccc(C(=O)O)cc1)C(N)=S"
measured_on = "Tyrosyl-DNA phosphodiesterase 1 (Homo sapiens)"
relation_symbol = "="
observed_value = 4.92

[[record]]
compound = "O=C1NC(=S)/C(=C/c2ccc(-c3nnn[nH]3)cc2)S1"
measured_on = "Tyrosyl-DNA phosphodiesterase 1 (Homo sapiens)"
relation_symbol = "="
observed_value = 4.49

[[record]]
compound = "N#C/C(=C\\c1ccc(Br)cc1)C(N)=S"
measured_on = "Tyrosyl-DNA phosphodiesterase 1 (Homo sapiens)"
relation_symbol = "<"
observed_value = 3.48

[[record]]
compound = "O=C1/C(=C/c2ccc(O)c(O)c2)NC(=S)N1c1ccccc1"
measured_on = "Tyrosyl-DNA phosphodiesterase 1 (Homo sapiens)"
relation_symbol = "="
observed_value = 4.13

[[record]]
compound = "N#C/C(=C\\c1ccc2ccccc2c1)C(N)=S"
measured_on = "Tyrosyl-DNA phosphodiesterase 1 (Homo sapiens)"
relation_symbol = "<"
observed_value = 3.48

[[record]]
compound = "O=C1NC(=S)/C(=C/c2ccc(O)cc2)S1"
measured_on = "Tyrosyl-DNA phosphodiesterase 1 (Homo sapiens)"
relation_symbol = "="
observed_value = 4.41

[[record]]
compound = "O=C1NC(=S)/C(=C/c2cccnc2)S1"
measured_on = "Tyrosyl-DNA phosphodiesterase 1 (Homo sapiens)"
relation_symbol = "="
observed_value = 4.36

[[record]]
compound = "O=C1NC(=S)N(Cc2ccccc2)/C1=C\\c1ccc(C(=O)O)cc1"
measured_on = "Tyrosyl-DNA phosphodiesterase 1 (Homo sapiens)"
relation_symbol = "<"
observed_value = 3.48

[[record]]
compound = "N#C/C(=C\\c1ccc(F)cc1)C(N)=S"
measured_on = "Tyrosyl-DNA phosphodiesterase 1 (Homo sapiens)"
relation_symbol = "<"
observed_value = 3.48

[[record]]
compound = "CCOP(=O)(OCC)c1ccc(/C=C2\\SC(=O)NC2=S)cc1"
measured_on = "Tyrosyl-DNA phosphodiesterase 1 (Homo sapiens)"
relation_symbol = "="
observed_value = 4.54


Data origin: ChEMBL document CHEMBL2169786
